assay: Pharmacokinetics after subcutaneous injection; format: in vivo; conditions: male, Sprague-Dawley, rat, plasma, sc, 62.3 mmol/L
propertyName: half-life (min)
Give just the numeric value; min need not be written.

Q) Which half-life reading was recorded for the compound CCCCN1CCN(C(C)C(=O)Nc2c(C)csc2C(=O)OC)CC1 (stereo not shown) [AT-17] ?
A) 49.4

====

biological target: NaV1.5 (Homo sapiens); assay: Cell membrane chromatography; type: binding; settings: capacity factor k′; reflects potential cardiac toxicity; k′ < 0 labeled as 0
Sequence (Q14524 whole entry): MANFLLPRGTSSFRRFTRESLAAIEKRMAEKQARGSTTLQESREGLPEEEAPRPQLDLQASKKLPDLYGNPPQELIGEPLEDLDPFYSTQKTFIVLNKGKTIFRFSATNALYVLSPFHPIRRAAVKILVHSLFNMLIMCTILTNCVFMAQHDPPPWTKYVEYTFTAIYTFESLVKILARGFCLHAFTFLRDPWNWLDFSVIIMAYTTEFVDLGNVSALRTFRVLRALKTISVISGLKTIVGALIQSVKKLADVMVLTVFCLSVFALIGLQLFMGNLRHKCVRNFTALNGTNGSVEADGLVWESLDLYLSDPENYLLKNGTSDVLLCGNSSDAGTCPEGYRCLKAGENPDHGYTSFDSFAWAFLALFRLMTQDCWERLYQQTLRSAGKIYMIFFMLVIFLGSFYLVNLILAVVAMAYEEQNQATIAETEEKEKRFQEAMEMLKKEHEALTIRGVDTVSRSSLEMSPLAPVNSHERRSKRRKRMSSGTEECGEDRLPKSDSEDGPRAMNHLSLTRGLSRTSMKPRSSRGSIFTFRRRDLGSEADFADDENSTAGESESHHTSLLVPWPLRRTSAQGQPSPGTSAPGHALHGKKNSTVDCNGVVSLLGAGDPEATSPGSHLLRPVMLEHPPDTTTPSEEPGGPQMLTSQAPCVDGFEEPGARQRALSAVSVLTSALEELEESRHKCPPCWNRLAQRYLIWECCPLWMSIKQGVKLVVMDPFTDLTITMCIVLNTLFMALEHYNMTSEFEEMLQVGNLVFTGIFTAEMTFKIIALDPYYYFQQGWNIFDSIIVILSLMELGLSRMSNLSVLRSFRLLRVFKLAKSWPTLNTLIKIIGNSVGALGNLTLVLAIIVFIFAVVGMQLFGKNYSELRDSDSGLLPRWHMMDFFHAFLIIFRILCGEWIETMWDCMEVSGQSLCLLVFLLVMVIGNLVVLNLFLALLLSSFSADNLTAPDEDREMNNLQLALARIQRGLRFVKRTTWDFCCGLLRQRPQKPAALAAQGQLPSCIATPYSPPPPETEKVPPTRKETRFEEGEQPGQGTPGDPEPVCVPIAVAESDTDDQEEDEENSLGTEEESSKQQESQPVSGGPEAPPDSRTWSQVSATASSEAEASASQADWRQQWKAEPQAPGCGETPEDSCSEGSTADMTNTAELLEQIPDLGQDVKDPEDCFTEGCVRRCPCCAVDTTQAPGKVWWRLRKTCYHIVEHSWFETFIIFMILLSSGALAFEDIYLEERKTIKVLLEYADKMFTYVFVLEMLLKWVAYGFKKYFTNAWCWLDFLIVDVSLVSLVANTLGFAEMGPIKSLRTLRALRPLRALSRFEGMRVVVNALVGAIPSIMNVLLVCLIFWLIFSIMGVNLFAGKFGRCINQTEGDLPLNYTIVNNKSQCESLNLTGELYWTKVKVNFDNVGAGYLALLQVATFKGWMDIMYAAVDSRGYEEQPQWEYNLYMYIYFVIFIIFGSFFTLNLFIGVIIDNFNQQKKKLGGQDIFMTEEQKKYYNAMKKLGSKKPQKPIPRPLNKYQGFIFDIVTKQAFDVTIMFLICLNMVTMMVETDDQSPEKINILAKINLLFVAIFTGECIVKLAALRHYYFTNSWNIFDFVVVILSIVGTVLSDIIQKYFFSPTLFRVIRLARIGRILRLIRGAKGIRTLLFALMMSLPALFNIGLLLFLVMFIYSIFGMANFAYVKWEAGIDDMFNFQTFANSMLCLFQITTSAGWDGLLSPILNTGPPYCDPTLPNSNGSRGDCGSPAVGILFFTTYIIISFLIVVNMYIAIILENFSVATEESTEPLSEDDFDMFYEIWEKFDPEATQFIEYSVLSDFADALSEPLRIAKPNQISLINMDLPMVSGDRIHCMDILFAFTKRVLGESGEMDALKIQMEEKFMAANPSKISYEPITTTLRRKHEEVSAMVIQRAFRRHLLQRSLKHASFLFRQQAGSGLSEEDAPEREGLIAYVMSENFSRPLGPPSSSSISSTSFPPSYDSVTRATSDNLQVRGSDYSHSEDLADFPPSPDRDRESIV
Label True when k′ NaV1.5 >= 40; otherwise False.

The following compounds have reported results that may help.
COCCN1CCN(C(C)C(=O)Nc2c(C)csc2C(=O)OC)CC1 (stereo not shown) [AT-20] ... True
COC(=O)c1scc(C)c1NC(=O)C(C)N1CCSCC1 (stereo not shown) [AT-9] ... True
CCCCN1CCN(C(C)C(=O)Nc2c(C)csc2C(=O)OC)CC1 (stereo not shown) [AT-17] ... False
COC(=O)c1scc(C)c1NC(=O)C(C)N(CCO)CCO (stereo not shown) [AT-25] ... False

Turning to the following compound.
Q) Is reported k′ NaV1.5 greater than or equal to 40 here: COC(=O)c1scc(C)c1NC(=O)C(C)N1CCN(C(C)C)CC1 (stereo not shown) [AT-13]
A) False
